The following sequences are listed with their measured folding stability dG unfold values.
test: folding stability dG unfold from trypsin proteolysis; higher = more stable
Could you give me the number in kcal/mol? Just the number is fine.

Below, 5 sequences whose answers are already recorded.
{"columns": ["Sequence", "Value Units", "folding stability dG unfold"],
 "data": [
  ["SPEIKIELVYDEETEELYLEIEIRFPESEEEAIEALKKLLEELGFEVVEIEEIEVEEDGTVRIRVRIRKKSA [r9_876_TrROS_Hall]", "kcal/mol", 4.87],
  ["SAGGSAGGSAGGGYIEIDSVHLHPDGTVTRTRAVLEVDENGNVRVLSAETETVPLDDILGSAGGSAGGSAGG [r7_521_TrMRF]", "kcal/mol", 2.28],
  ["SAGGSAGGKVRVITVKPGETITVEGLPPGAVLITLPDGSVKEFPAGATIKVPPSAEIVVVEKEDSAGGSAGG [r6_866_TrROS_Hall]", "kcal/mol", 0.486],
  ["SAGGEKIKEALEKVPGLEIVKVEKKDGKVYIHIKAKSEEQRKKAAEALKKLPGIKEVKIEVIPEEELSAGGS [r16_671_TrROS_Hall]", "kcal/mol", 3.28],
  ["SAGGSAGGSAGVVRTDDGREVTVRRTVRVEVRLEITITASEEDREKAAAALERLLRELGLSAGGSAGGSAGG [r17_501_TrROS_Hall]", "kcal/mol", 2.68]
]}

Entry under test: SAGGSAGGSKTIEIVVPPNTTPEEIAKKLKELFPDAKITSVEVYVDKKTKKIVYVKVKIEVKPSAGGSAGGS [r12_822_TrROS_Hall] . Its folding stability dG unfold was 2.68

Entry under test: SAGGSAGGSAGGEKIIKVHPDNIEAFLKEAKEKGYKVILFPNGEAIVNGKKVKIISDPKSAGGSAGGSAGGS [r10_930_TrMRF] . Its folding stability dG unfold was 1.36
